The origin of these recorded values is patent US20130072532A1.

METHOD: clinical
STUDY CONDITIONS: human, in vivo, topical or ocular
REPORTED METRIC: half-life

> print(dat)
                                   molecule  reported.metric  data.value
1  Cc1cccc([C@H](C)c2cnc[nH]2)c1C [dexmedetomidine]        half-life    ~900 min
